tested on: Staphylococcus aureus; experiment: Antibacterial activity against methicillin-resistant Staphylococcus aureus ATCC 43300 assessed as inhibition of bacterial growth by CLSI protocol based broth microdilution assay; type: functional
Just a reminder that ties go to not satisfied: only MIC strictly below 2 µg/mL counts as satisfied.

| query smiles | target or system | answer label |
| --- | --- | --- |
| COc1cc(C(=O)O)cc2sc(NC(=O)c3[nH]c(C)c(Cl)c3Cl)nc12 | Staphylococcus aureus | satisfied |
| Cc1[nH]c(C(=O)Nc2nc3c(F)cc(C(=O)O)cc3s2)c(Cl)c1Cl | Staphylococcus aureus | satisfied |
| Cc1[nH]c(C(=O)Nc2nc3ccc(C(=O)NCCC(=O)O)cc3s2)c(Cl)c1Cl | Staphylococcus aureus | not satisfied |
| Cc1[nH]c(C(=O)Nc2nc3ccc(C(=O)O)cc3s2)c(Cl)c1Cl | Staphylococcus aureus | satisfied |
| Cc1[nH]c(C(=O)Nc2nc3ccc(C(=O)NO)cc3s2)c(Cl)c1Cl | Staphylococcus aureus | not satisfied |
| Cc1[nH]c(C(=O)Nc2nc3cc(O)c(C(=O)O)cc3s2)c(Cl)c1Cl | Staphylococcus aureus | not satisfied |
| Cc1[nH]c(C(=O)Nc2nc3c(O)cc(C(=O)O)cc3s2)c(Cl)c1Cl | Staphylococcus aureus | not satisfied |
| Cc1[nH]c(C(=O)Nc2nc3c(OCc4ccsc4)cc(C(=O)O)cc3s2)c(Cl)c1Cl | Staphylococcus aureus | satisfied |
| Cc1[nH]c(C(=O)Nc2nc3c(OCc4cccs4)cc(C(=O)O)cc3s2)c(Cl)c1Cl | Staphylococcus aureus | satisfied |
| Cc1[nH]c(C(=O)Nc2nc3ccc(-c4nnn[nH]4)cc3s2)c(Cl)c1Cl | Staphylococcus aureus | not satisfied |
| Cc1[nH]c(C(=O)Nc2nc3c(OCc4ccccc4)cc(C(=O)NCC#N)cc3s2)c(Cl)c1Cl | Staphylococcus aureus | not satisfied |
| Cc1[nH]c(C(=O)Nc2nc3c(OCc4ccccc4)cc(C(=O)O)cc3s2)c(Cl)c1Cl | Staphylococcus aureus | satisfied |
| Cc1[nH]c(C(=O)Nc2nc3c(OCc4ccccc4)cc(-c4nnn[nH]4)cc3s2)c(Cl)c1Cl | Staphylococcus aureus | not satisfied |
| CCN(C(=O)c1[nH]c(C)c(Cl)c1Cl)c1nc2ccc(C(=O)O)cc2s1 | Staphylococcus aureus | not satisfied |
| Cc1[nH]c(C(=O)Nc2nc3c(OCc4cccc(F)c4)cc(C(=O)O)cc3s2)c(Cl)c1Cl | Staphylococcus aureus | satisfied |

---

experiment: Inhibition of Staphylococcus aureus topoisomerase assessed as reduction in relaxation of supercoiled pNO1 DNA measured after 30 mins by fluorescence assay
pIC50: −log10 of the molar value.

| query smiles | inequality symbol | pIC50 |
| --- | --- | --- |
| Cc1[nH]c(C(=O)Nc2nc3ccc(C(=O)O)cc3s2)c(Cl)c1Br | = | 7.21 |
| COc1cc(C(=O)O)cc2sc(NC(=O)c3[nH]c(C)c(Cl)c3Cl)nc12 | = | 6.41 |
| Cc1[nH]c(C(=O)Nc2nc3c(OCc4ccccc4)cc(C(N)=O)cc3s2)c(Cl)c1Cl | < | 6.00 |
| Cc1[nH]c(C(=O)Nc2nc3ccc(C(=O)O)cc3s2)c(Cl)c1Cl | = | 7.18 |
| Cc1[nH]c(C(=O)Nc2nc3ccc(C(=O)NCC#N)cc3s2)c(Cl)c1Cl | < | 6.00 |
| Cc1[nH]c(C(=O)Nc2nc3c(OCCN4CCOCC4)cc(C(=O)O)cc3s2)c(Cl)c1Cl | = | 7.18 |
| O=C(O)c1ccc2nc(NC(=O)c3cc(Cl)c(Cl)[nH]3)sc2c1 | < | 6.00 |
| Cc1[nH]c(C(=O)Nc2nc3c(OCc4ccc(C(=O)O)cc4)cc(C(=O)O)cc3s2)c(Cl)c1Cl | = | 7.92 |
| Cc1[nH]c(C(=O)N(c2nc3ccc(C(=O)O)cc3s2)C2CC2)c(Cl)c1Cl | < | 6.00 |
| CCN(C(=O)c1[nH]c(C)c(Cl)c1Cl)c1nc2ccc(C(=O)O)cc2s1 | = | 6.64 |
| Cc1[nH]c(C(=O)Nc2nc3c(OCc4ccsc4)cc(C(=O)O)cc3s2)c(Cl)c1Cl | = | 7.08 |
| Cc1[nH]c(C(=O)Nc2nc3c(OCc4ccccc4)cc(-c4nnn[nH]4)cc3s2)c(Cl)c1Cl | = | 7.05 |
| Cc1[nH]c(C(=O)Nc2nc3c(OCCN4CCOCC4)cc(C(=O)NCC#N)cc3s2)c(Cl)c1Cl | = | 6.28 |
| Cc1[nH]c(C(=O)N(c2nc3ccc(C(=O)O)cc3s2)C(C)C)c(Cl)c1Cl | < | 6.00 |
| Cc1[nH]c(C(=O)Nc2nc3c(OCc4ccccc4)cc(C(=O)O)cc3s2)c(Cl)c1Cl | = | 7.17 |
| O=C(NO)c1ccc2nc(NC(=O)c3cc(Br)c(Br)[nH]3)sc2c1 | < | 6.00 |
| Cc1[nH]c(C(=O)Nc2nc3c(OCc4cccc(F)c4)cc(C(=O)O)cc3s2)c(Cl)c1Cl | > | 8.00 |
| Cc1[nH]c(C(=O)Nc2nc3c(O)cc(C(=O)O)cc3s2)c(Cl)c1Cl | = | 6.92 |
| Cc1[nH]c(C(=O)Nc2nc3c(OCc4ccccc4)cc(C(=O)NCC#N)cc3s2)c(Cl)c1Cl | < | 6.00 |
| Cc1[nH]c(C(=O)Nc2nc3c(OCCN)cc(C(=O)O)cc3s2)c(Cl)c1Cl | = | 6.80 |
| Cc1[nH]c(C(=O)Nc2nc3ccc(C(=O)NO)cc3s2)c(Cl)c1Cl | < | 6.00 |
| COc1ccc2nc(NC(=O)c3[nH]c(C)c(Cl)c3Cl)sc2c1 | < | 6.00 |
| Cc1[nH]c(C(=O)Nc2nc3c(F)cc(C(=O)O)cc3s2)c(Cl)c1Cl | = | 6.62 |
| O=C(O)c1ccc2nc(NC(=O)c3cc(Br)c(Br)[nH]3)sc2c1 | = | 6.52 |
| Cc1[nH]c(C(=O)Nc2nc3c(OCc4cccc(C(=O)O)c4)cc(C(=O)O)cc3s2)c(Cl)c1Cl | = | 7.89 |
| Cc1[nH]c(C(=O)Nc2nc3c(OCc4ccccc4)cc(C#N)cc3s2)c(Cl)c1Cl | < | 6.00 |
| Cc1[nH]c(C(=O)Nc2nc3ccc(C(=O)NCCC(=O)O)cc3s2)c(Cl)c1Cl | = | 7.40 |
| Cc1[nH]c(C(=O)Nc2nc3c(OCc4cccs4)cc(C(=O)O)cc3s2)c(Cl)c1Cl | = | 7.06 |
| O=C(O)c1cc(O)c2nc(NC(=O)c3cc(Br)c(Br)[nH]3)sc2c1 | = | 6.62 |
| Cc1[nH]c(C(=O)Nc2nc3ccc(-c4nnn[nH]4)cc3s2)c(Cl)c1Cl | = | 6.57 |
| Cc1[nH]c(C(=O)Nc2nc3cc(C(=O)O)ccc3s2)c(Cl)c1Cl | < | 6.00 |
| Cc1[nH]c(C(=O)Nc2nc3ccc(C#N)cc3s2)c(Cl)c1Cl | < | 6.00 |
| Cc1[nH]c(C(=O)Nc2nc3cc(O)c(C(=O)O)cc3s2)c(Cl)c1Cl | = | 7.34 |
| Cc1[nH]c(C(=O)Nc2nc3ccc(C(N)=O)cc3s2)c(Cl)c1Cl | = | 6.49 |

---

experiment: Ratio of genotoxicity in CHO-K1 cells by invitro micronucleus test to MIC for methicillin-resistant wild type Staphylococcus aureus ATCC 43300; assay type: toxicity, cell-based; details: hamster

| query smiles | selectivity ratio |
| --- | --- |
| Cc1[nH]c(C(=O)Nc2nc3c(OCc4ccsc4)cc(C(=O)O)cc3s2)c(Cl)c1Cl | 123 |

---

assay: Ratio of genotoxicity in CHO-K1 cells in presence of rat liver S9 fraction by invitro micronucleus test to MIC for methicillin-resistant wild type Staphylococcus aureus ATCC 43300; format: toxicity, cell-based; details: CHO-K1 cells with rat liver S9 fraction
endpoint label: selectivity ratio

| query smiles | measured number |
| --- | --- |
| Cc1[nH]c(C(=O)Nc2nc3c(OCc4ccsc4)cc(C(=O)O)cc3s2)c(Cl)c1Cl | 478 |

---

system: human topoisomerase 2alpha; experiment: Selectivity ratio of IC50 for inhibition of human topoisomerase 2alpha to IC50 for inhibition of Escherichia coli DNA gyrase; assay type: toxicity; conditions: read-out: Ratio IC50

| query smiles | selectivity ratio |
| --- | --- |
| Cc1[nH]c(C(=O)Nc2nc3c(OCc4ccsc4)cc(C(=O)O)cc3s2)c(Cl)c1Cl | 450 |

---

assay: Ratio of genotoxicity in CHO-K1 cells by invitro micronucleus test to MIC for vancomycin-resistant Staphylococcus aureus ATCC 700699; type: toxicity, cell-based; settings: hamster
endpoint label: selectivity ratio

| query smiles | measured number |
| --- | --- |
| Cc1[nH]c(C(=O)Nc2nc3c(OCc4ccsc4)cc(C(=O)O)cc3s2)c(Cl)c1Cl | 247 |
